- Protocol Description: qHTS assay to identify small molecule antagonists of the progesterone receptor (PR) signaling pathway - cell viability counter screen (AID 1346798); note: nearly all actives have a fitted effect of over 50% in size
- Particulars: PR-UAS-bla HEK293T viability, CellTiter-Glo luminescence, 16 h; series mostly up to 92.4 µM
- From the text: National Center for Advancing Translational Sciences [NCATS] NIH Chemical Genomics Center [NCGC] U.S. Environmental Protection Agency [EPA] National Institutes of Environmental Health Sciences [NIEHS] National Toxicology Program [NTP] U.S. Food and Drug Administration [FDA] Progesterone receptor (PR), a nuclear hormone receptor, plays an important role in development, metabolic homeostasis and reproduction. It is activated by the steroid hormone progesterone. […]
Inconclusive results are not listed. Activity calls are given as the source filed them. Calls come from the whole dose curve; as a rule, active = well fitted cell-killing curve with a large enough effect in the repeat runs; inconclusive = weak or mixed curves, or effect the other way; inactive = no such curve, though single readings can be large or run the other way.
Outcomes: YES = active, NO = inactive

# Molecule, Group Label
data = [
    ("O=[N+]([O-])c1cccc(C(F)(F)F)c1", "NO"),
    ("O=C(O)[C@H](O)[C@@H](O)[C@H](O[C@@H]1O[C@H](CO)[C@H](O)[C@H](O)[C@H]1O)[C@H](O)CO", "NO"),
    ("COc1cccc(OC)c1C(=O)O", "NO"),
    ("Cc1ccc(N/N=c2\\c(=O)cc/c(=N\\Nc3ccc(S(=O)(=O)O)cc3)c2=O)c(C)c1", "NO"),
    ("O=C(O)c1cc(-c2ccc(F)cc2F)ccc1O", "NO"),
    ("CCN(CC)c1ccc2c(-c3ccc(S(=O)(=O)O)cc3S(=O)(=O)[O-])c3ccc(=[N+](CC)CC)cc-3oc2c1", "NO"),
    ("O=c1oc2cc(O)ccc2c2oc3cc(O)ccc3c12", "NO"),
    ("Oc1c(I)cc(Cl)c2cccnc12", "NO"),
    ("CCCC1CCC(=O)CC1", "NO"),
    ("Cc1ccc(C)cc1", "NO"),
    ("O=c1[nH]c(=O)n([C@H]2C[C@H](O)[C@@H](CO)O2)cc1F", "NO"),
    ("OC[C@@H](O)[C@@H](O)CO", "NO"),
    ("Cc1ccc(-c2ccccc2)cc1", "NO"),
    ("CCCCCC(C)OC(=O)COc1ccc(Cl)c2cccnc12 (centres undefined)", "NO"),
    ("CCC(C)(CCC(C)C)C(=O)[O][Sn]([CH3])([CH3])[O]C(=O)C(C)(CC)CCC(C)C (centres undefined)", "NO"),
    ("CCN1C(=O)c2ccccc2C1Nc1ccc(OCCN2CCCCC2)cc1 (centres undefined)", "NO"),
    ("COCCOc1cc2cc(C(=O)NC3CCN(C(C)C)CC3)n(CC(=O)Nc3ccc(Cl)cn3)c2cn1", "NO"),
    ("Cc1nc(-c2ccc(Cl)cc2)oc1COC(C)(C)C(=O)O", "NO"),
    ("C=CCCC(=O)/C=C/C1C(C)=CCCC1(C)C (centres undefined)", "NO"),
    ("OC1CCC(C2CCCCC2)CC1 (centres undefined)", "NO"),
    ("O=C1C(c2[nH]c3ccc(S(=O)(=O)O)cc3c2O)=Nc2ccc(S(=O)(=O)O)cc21", "NO"),
    ("O=C(/C=C/c1ccc(O)c(O)c1)O[C@@H](C(=O)O)[C@@H](OC(=O)/C=C/c1ccc(O)c(O)c1)C(=O)O", "NO"),
    ("COc1cc(S(=O)(=O)O)c(C)cc1N=Nc1c(O)ccc2cc(S(=O)(=O)O)ccc12", "NO"),
    ("O=S(=O)(O)c1ccc(N=Nc2c(O)ccc3ccccc23)cc1", "YES"),
]

----------
- Protocol Description: qHTS assay for small molecule agonists of the antioxidant response element (ARE) signaling pathway (AID 743202)
- Particulars: HepG2 ARE-bla reporter, beta-lactamase FRET, 16 h; series mostly up to 73.3 µM
Inconclusive results are not listed. Active and inactive are the calls of the source. Calls come from the whole dose curve; as a rule, active = well fitted activation curve with a large enough effect in the signal ratio in the repeat runs (not every such curve was filed as active); inconclusive = weak or mixed curves, or effect the other way; inactive = no such curve, though single readings can be large or run the other way; the % refers to the signal ratio.
Outcomes: YES (active), NO (inactive)

# Molecule, Group Label
data = [
    ("Cc1ccc(C(=O)O)cc1", "NO"),
    ("Cc1c(N)cccc1C(F)(F)F", "NO"),
    ("CCOc1ccc2ccccc2c1C(=O)N[C@@H]1C(=O)N2[C@@H]1SC(C)(C)[C@@H]2C(=O)O", "YES"),
    ("O=C(O)c1cccc(C(F)(F)F)c1", "NO"),
    ("O=[N+]([O-])c1ccc(F)c(Cl)c1", "NO"),
    ("c1cnccn1", "NO"),
    ("O=C(O)c1cc(-c2ccc(F)cc2F)ccc1O", "YES"),
    ("C=C(C)C(=O)OCCCCCCCCCC", "NO"),
    ("Clc1ccnc(Cl)n1", "NO"),
    ("C=CCn1c(=O)n(CC=C)c(=O)n(CC=C)c1=O", "NO"),
    ("CC(=O)Oc1cc2c(s1)CCN(C(C(=O)C1CC1)c1ccccc1F)C2 (centres undefined)", "NO"),
    ("Sc1nc2ccccc2s1", "NO"),
    ("ClCCl", "NO"),
    ("CCCCCC/C=C\\CCCCCCCC(=O)O", "NO"),
]

----------
Entries annotated with measured Potency
- Protocol Description: qHTS RealTime-Glo MT Cell Viability Assay in HEK293 cells - 40 hour (AID 1224874); note: potency is the fitted concentration of half-maximal effect; nearly all actives have a fitted effect of over 50% in size
- Particulars: RealTime-Glo luminescence
Results filed as inconclusive are left out. The source made the active and inactive calls. Calls follow the shape of the dose curve; as a rule, active = well fitted cell-killing curve with a large enough effect in the repeat runs; inconclusive = weak or mixed curves, or effect the other way; inactive = flat fitted curve, though single readings scatter.

# Compound, Potency
data = [
    ("CNC(=O)c1ccccc1Sc1ccc2c(/C=C/c3ccccn3)n[nH]c2c1", "8.49 µM (active)"),
    ("COC(=O)Nc1nc2ccc(C(=O)c3ccccc3)cc2[nH]1", "0.477 µM (active)"),
    ("Cc1cc(-c2ccc(N=Nc3cc(S(=O)(=O)O)c4ccccc4c3N)c(C)c2)ccc1N=Nc1cc(S(=O)(=O)O)c2ccccc2c1N", "2.2 µM (active)"),
    ("Oc1c(I)cc(Cl)c2cccnc12", "24.5 µM (active)"),
    ("C=CC(=O)OCCOC(=O)C=C", "49 µM (active)"),
    ("CCCCC(CC)CN1CN(CC(CC)CCCC)CC(C)(N)C1 (stereo unspecified)", "9.52 µM (active)"),
]

----------
- Protocol Description: qHTS assay to identify small molecule antagonists of the androgen receptor (AR) signaling pathway using the MDA cell line - cell viability counter screen (AID 743041; note: nearly all actives have a fitted effect of over 45% in size)
- Particulars: MDA-kb2 viability, CellTiter-Fluor, 16 h, cells co-treated with R1881 androgen agonist; series mostly up to 70.3 µM
Inconclusive results are not listed. Active and inactive are the calls of the source. Calls follow the shape of the dose curve; as a rule, active = well fitted cell-killing curve with a large enough effect in the repeat runs; inconclusive = weak or mixed curves, or effect the other way; inactive = flat fitted curve, though single readings scatter.
Outcomes: active, inactive

# Molecule, Group Label
rows = [
    ("COc1ccc(NC(=O)CC(C)=O)cc1", "inactive"),
    ("CCCCOC(=O)CC", "inactive"),
    ("CC1=Nc2ccccc2C1(C)C", "inactive"),
    ("CCCCC/C=C\\C/C=C\\CCCCCCCC(=O)O", "inactive"),
    ("C=C(CC)C(=O)c1ccc(OCC(=O)O)c(Cl)c1Cl", "active"),
    ("CCC(COC(=O)CCS)(COC(=O)CCS)COC(=O)CCS", "inactive"),
    ("CCCCCC/C=C\\CCCCCCCC(=O)O", "inactive"),
    ("S=c1nccc[nH]1", "inactive"),
    ("O=C(Oc1ccccc1)Oc1ccccc1", "inactive"),
    ("COc1cc(/C=C/c2ccccc2)oc(=O)c1", "inactive"),
    ("CCCCCCCCCCCC(=O)OCC(C)OC(=O)CCCCC(=O)O (centres undefined)", "inactive"),
    ("CC(C)Cn1cnc2c(N)nc3ccccc3c21", "inactive"),
    ("Cc1ccc(O)c(O)c1", "inactive"),
    ("CCCCCCOC(=O)C(C)CC (centres undefined)", "inactive"),
]

----------
- System: Cytochrome P450 2C9 (Homo sapiens)
- Protocol Description: Cytochrome P450 Family 2 Subfamily C Member 9 (CYP2C9) small molecule antagonists: luciferase reporter qHTS assay (AID 1671198); note: nearly all actives have a fitted effect of over 50% in size; note: potency is the fitted concentration of half-maximal effect
- Particulars: P450-Glo CYP2C9 enzyme assay, luciferin luminescence; series mostly up to 115 µM
Records with an inconclusive call do not appear. Activity calls are given as the source filed them. The call rests on the fitted dose curve; in most records, active means well fitted inhibition curve with a large enough effect in the repeat runs; inconclusive means weak or mixed curves; inactive means no such curve, though single readings can be large or run the other way.

# Compound, Potency
rows = [
    ("CCc1ccc(Br)cc1", "inactive"),
    ("CC(C)(C)c1csc(-c2cc3cc(OCc4ccccc4CC(=O)O)ccc3o2)n1", "56.4 µM (active)"),
    ("CC(CO)Oc1ccccc1 (configuration not stated)", "inactive"),
    ("C#Cc1ccc(-c2ccccc2F)cc1", "15.5 µM (active)"),
    ("CCCCCCCCCCCCCC[N+](C)(C)C", "inactive"),
    ("CCC(C)n1ncn(-c2ccc(N3CCN(c4ccc(OC[C@H]5CO[C@](Cn6cncn6)(c6ccc(Cl)cc6Cl)O5)cc4)CC3)cc2)c1=O (some centres not stated)", "13.8 µM (active)"),
    ("CNC(=O)c1ccccc1Sc1ccc2c(/C=C/c3ccccn3)n[nH]c2c1", "6.92 µM (active)"),
    ("Cc1cccc(C(=O)O)c1O", "inactive"),
    ("CC1(C)CCC[C@]2(C)[C@H]3CC(=O)O[C@]3(C)CC[C@@H]12", "39.9 µM (active)"),
    ("OC[C@@H](O)[C@@H](O)CO", "inactive"),
    ("Cc1c(C)c2c(c(C)c1O)CC[C@@](C)(CCC[C@H](C)CCC[C@H](C)CCCC(C)C)O2", "inactive"),
    ("Nc1ccc(Oc2ccc(Cl)cc2)cc1", "12.4 µM (active)"),
    ("C=CC(C)(CCC=C(C)C)OC=O (configuration not stated)", "35.6 µM (active)"),
    ("CC1(C)CC(O)CC(C)(C)N1", "inactive"),
    ("CCn1c2ccccc2c2cc([N+](=O)[O-])ccc21", "inactive"),
    ("Cc1ccc(-c2ccccc2)cc1", "inactive"),
    ("COC(C)=O", "inactive"),
    ("Cc1cc(C(C)(C)C)cc(C)c1CC1=NCCN1", "inactive"),
    ("C=CC(=O)OCCOC(=O)C=C", "inactive"),
    ("Cc1nc(-c2ccc(Cl)cc2)oc1COC(C)(C)C(=O)O", "inactive"),
    ("COc1cccc(OC)c1C(=O)O", "inactive"),
    ("c1ccc(C(O[C@@H]2CCCN(CCc3ccc4c(c3)OCO4)C2)c2ccccc2)cc1", "17.8 µM (active)"),
    ("CCCC[P+](C)(CCCC)CCCC", "inactive"),
    ("CC[N+](CC)(CC)CCOc1ccc(/C=C/c2ccccc2)cc1", "inactive"),
    ("O=C(c1ccc(O)c(O)c1)c1ccc(O)cc1O", "inactive"),
    ("CCCCCCOC(=O)C(C)CC (configuration not stated)", "inactive"),
    ("CCCCCCCCCCCCOCCOCCOCCOCCOCCOCCOCCOCCOCCO", "15.5 µM (active)"),
]
